# test target: HA H1 A/New Caledonia/20/99 (Influenza A virus (A/New Caledonia/20/1999(H1N1)), UniProt Q6WG00)
# measurement description: biochemical
# condition: Competition binding (AlphaLISA), pIC50 H1 A/New Caledonia/20/99
// IC50 lookup, one value per entry

Previously resolved entries follow.
compound	IC50
COC(=O)[C@@H](c1ccccc1)N1CCN(C(=O)c2cccc(-c3nc4cc(C(F)(F)F)ccc4o3)c2)[C@H](CC(N)=O)C1	50.1 nM
COc1ccc2nc(-c3cccc(C(=O)N4CCN([C@H](c5ccccc5)c5nnn(C)n5)CC4)c3)sc2c1	63.1 nM
Cc1nnc(C(c2ccccc2)N2CCN(C(=O)c3ccnc(-c4nc5cc(C(F)(F)F)ccc5o4)c3)CC2)o1 (stereo not shown)	794 nM

// next entry
Short answer for O=C(c1cccc(-c2nc3cc(C(F)(F)F)ccc3o2)c1)N1CCN(C(c2ccccc2)c2nnc(C3(O)CNC3)o2)CC1 (stereo not shown) : IC50 was 39.8 nM

----------
// CC50 lookup, one value per entry
# measurement description: in vitro
# condition: dog, Cytotoxicity (pCC50) MDCK
Response body: numeric value in µM, unit text excluded.

Previously resolved entries follow.
molecule	CC50 (µM)
COC(=O)C(c1ccccc1)C1CCN(C(=O)c2cccc(-c3ccc(OC)cc3)c2)CC1 (stereo not shown) [Example 130]	39.8
Cc1nnc(C(c2ccccc2)N2CCN(C(=O)c3cccc(-c4nc5cc(O)ccc5o4)c3)CC2)o1 (stereo not shown) [Example 44]	39.8
CC(=O)Nc1ccc2oc(-c3cccc(C(=O)N4CCN(C(c5ccccc5)c5nnc(C)o5)CC4)c3)nc2c1 (stereo not shown) [Example 51]	50.1

// next entry
Short answer for COC(=O)C(c1cccnc1)N1CCN(C(=O)c2cccc(-c3nc4ccc(OC)cc4s3)c2)CC1 (stereo not shown) [Example 68] : CC50 was 10

----------
# measurement description: in vitro
# condition: dog, Cytotoxicity (pCC50) MDCK
recorded endpoint: CC50 (µM)
Response body: numeric value in µM, unit text excluded.

Previously resolved entries follow.
molecule	CC50 / µM
Cc1nnc(C(c2ccccc2)N2CCN(C(=O)c3cccc(-c4nc5cc(F)ccc5o4)c3)CC2)o1 (centres unmarked) [Example 47]	31.6
COc1ccc2nc(-c3cccc(C(=O)N4CCN(C(c5ccccc5)c5ccc[nH]c5=O)CC4)c3)sc2c1 (centres unmarked) [Example 91]	39.8
COc1ccc2nc(-c3cccc(C(=O)N4CCN(C(CO)c5ccccc5)CC4)c3)sc2c1 (centres unmarked) [Example 82]	5.01
COC(=O)C(c1ccccc1)N1CCN(C(=O)c2cccc(-c3nc4ccc(OC)cc4s3)c2)CC1 (centres unmarked) [Example 29]	39.8
COc1ccc2oc(-c3cccc(C(=O)N4CCN(C(c5ccccc5)c5nnc(C)o5)CC4)c3)nc2c1 (centres unmarked) [Example 36]	20

Short answer for COC(=O)C(c1ccccc1)N1CCN(C(=O)c2cc(-c3nc4ccc(OC)cc4s3)ccn2)CC1 (centres unmarked) [Example 14] : CC50 was 15.8

----------
# test target: HA H1 A/New Caledonia/20/99 (Influenza A virus (A/New Caledonia/20/1999(H1N1)), UniProt Q6WG00)
# measurement description: biochemical
# condition: Competition binding (AlphaLISA), pIC50 H1 A/New Caledonia/20/99
pIC50: −log10 of the molar value.
Threshold rule: pIC50 greater than or equal to 7 is Satisfied; below that, Not satisfied.

molecule	category
CNc1ccc2oc(-c3cccc(C(=O)N4CCN(C(c5ccccc5)c5nnc(C)o5)CC4)c3)nc2c1 (stereo not shown)	Satisfied
COc1ccc2nc(-c3cccc(C(=O)N4CCN(C(c5ccccc5)c5ccc[nH]c5=O)CC4)c3)sc2c1 (stereo not shown)	Not satisfied

# input for lookup
Problem: pIC50 >= 7 for Cc1nnc(C(c2ccccc2)N2CCN(C(=O)[C@H]3CCCN(c4nc5cc(C(F)(F)F)ccc5o4)C3)CC2)o1 (stereo partly shown) ?
Solution: Not satisfied

The reported numbers originate from patent US11040963B2.
